Ref: ChEMBL document CHEMBL3352498

Consider the following compounds and their measured MIC readings.
# Test system: Escherichia coli
# ASSAY: Antimicrobial activity against Escherichia coli MTCC 443 after 24 hrs by broth microdilution method
# Assay type: functional
# CONDITION PARAMETERS: MTCC 443, 24 h
PARAMETER MEASURED: MIC

INSERT INTO measurements (given_smiles, result) VALUES
  ('N[C@@H](Cc1ccccc1)C(=O)NCCCN(CCCNC(=O)[C@@H](N)Cc1ccccc1)C(=O)[C@@H](N)Cc1ccccc1.O=C(O)C(F)(F)F.O=C(O)C(F)(F)F.O=C(O)C(F)(F)F', '> 250 µg/mL'),
  ('N[C@@H](Cc1ccccc1)C(=O)NCCCNCCCNC(=O)[C@@H](N)Cc1ccccc1.O=C(O)C(F)(F)F.O=C(O)C(F)(F)F.O=C(O)C(F)(F)F', '> 250 µg/mL'),
  ('CCCCCCCCCCCCCC(=O)N(CCCN)CCCN.O=C(O)C(F)(F)F.O=C(O)C(F)(F)F', '28 µg/mL'),
  ('CCCCCCCCCCCCCC(=O)N(CCCNC(=O)[C@@H](N)Cc1ccccc1)CCCNC(=O)[C@@H](N)Cc1ccccc1.O=C(O)C(F)(F)F.O=C(O)C(F)(F)F', '14 µg/mL'),
  ('CCCCCCCCCC(=O)N(CCCNC(=O)[C@@H](N)Cc1ccccc1)CCCNC(=O)[C@@H](N)Cc1ccccc1.O=C(O)C(F)(F)F.O=C(O)C(F)(F)F', '19 µg/mL'),
  ('CCCCCCCCCCCC(=O)N(CCCNC(=O)[C@H](N)Cc1ccccc1)CCCNC(=O)[C@H](N)Cc1ccccc1.O=C(O)C(F)(F)F.O=C(O)C(F)(F)F', '10 µg/mL'),
  ('CCCCCCCCCCCCCCCCCC(=O)N(CCCNC(=O)[C@@H](N)Cc1ccccc1)CCCNC(=O)[C@@H](N)Cc1ccccc1.O=C(O)C(F)(F)F.O=C(O)C(F)(F)F', '248 µg/mL');
